Provide the reported concentration at 1 h of each item.
- TEST_DESCRIPTION: Plasma concentration in Wistar Han rat at 5 mg/kg, iv measured 1 hr post compound administration
- Assay type: ADME, organism-based
The reply should be a number in ng/mL, with the unit left off.

// concentration at 1 h value for "COC(=O)N1CCN(C(=O)Cc2ccc(C(F)(F)F)c(Cl)c2)[C@@H]2[C@@H](N3CC[C@H](O)C3)CCC[C@@H]21.Cl" : 573

Kindly note the recorded concentration at 1 h for "COC(=O)N1CCN(C(=O)Cc2ccc(Cl)cc2)[C@@H]2[C@@H](N3CC[C@H](O)C3)CCC[C@@H]21.Cl" , which is 374

Measured concentration at 1 h of "COC(=O)N1CCN(C(=O)Cc2ccc(Cl)c(Cl)c2)[C@@H]2[C@@H](N3CC[C@H](O)C3)CCC[C@@H]21.Cl" : 669

Form field concentration at 1 h, entry "COC(=O)N1CCN(C(=O)Cc2ccc(F)c(Cl)c2)[C@@H]2[C@@H](N3CC[C@H](F)C3)CCC[C@@H]21.Cl" : 811

Reported concentration at 1 h for "CS(=O)(=O)N1CCN(C(=O)Cc2ccc(Cl)c(Cl)c2)[C@@H]2[C@@H](N3CC[C@H](O)C3)CCC[C@@H]21.Cl" was 2170
